- TESTED SYSTEM: T1, recombinant human IL-6 (human, UniProt P05231 30-212)
- T1 construct: Flowed in solution over the captured antibodies
- T1 sequence (P05231 30-212 limits assumed): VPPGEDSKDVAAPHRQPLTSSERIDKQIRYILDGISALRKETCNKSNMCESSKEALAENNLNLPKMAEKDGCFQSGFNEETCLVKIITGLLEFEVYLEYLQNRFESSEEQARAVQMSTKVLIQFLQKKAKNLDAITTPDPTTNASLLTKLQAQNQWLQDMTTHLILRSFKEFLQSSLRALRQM
- ASSAY INFO: SPR (Biacore), supernatant IgG on Protein A, 25 C
PARAMETER: Kd (nM)
Answers are plain numbers, in nM.

INPUT: Any idea what Kd was measured for anti-IL-6 antibody, heavy chain S56H, light chain WT (antibody, IgG1, V domains shown, Full IgG1 tested; V domains derived as in m2) VH: EVQLVESGGGLVQPGGSLRLSCAASGFTFSPFAMSWVRQAPGKGLEWVAKISPGGHWTYYSDTVTGRFTFSLDTSKSTAYLQMNSLRAEDTAVYYCARQLWGYYALDIWGQGTLVTVSS VL: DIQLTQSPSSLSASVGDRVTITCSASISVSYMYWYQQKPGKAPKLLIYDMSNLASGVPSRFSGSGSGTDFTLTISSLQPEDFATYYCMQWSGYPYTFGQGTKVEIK ?
OUTPUT: 0.452
